Molecular target: mu opiate receptor (MOR) (Rattus norvegicus, UniProt P33535)
Construct: from tissue; host or cells: striatum (membrane preparation)
Sequence (P33535 whole entry): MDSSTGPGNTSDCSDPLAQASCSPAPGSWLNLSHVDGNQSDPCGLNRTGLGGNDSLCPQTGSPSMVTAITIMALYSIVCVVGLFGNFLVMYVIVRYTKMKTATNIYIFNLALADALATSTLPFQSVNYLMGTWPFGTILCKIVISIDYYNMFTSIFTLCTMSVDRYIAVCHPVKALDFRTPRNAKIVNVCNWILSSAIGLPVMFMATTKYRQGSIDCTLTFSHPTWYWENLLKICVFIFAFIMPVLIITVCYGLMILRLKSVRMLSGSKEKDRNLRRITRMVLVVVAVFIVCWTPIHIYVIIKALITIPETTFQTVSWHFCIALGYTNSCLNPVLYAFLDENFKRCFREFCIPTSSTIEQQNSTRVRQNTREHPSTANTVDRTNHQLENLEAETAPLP
Assay: MOR agonist activity using [35S]GTPgS binding assay in striatal membranes
Format: biochemical
Conditions: 1 μM + BFNA; Series C-1 table
Procedure: To assess the mu opiate receptor (MOR) agonist activity of positive compounds from the FLNA screening, compounds were tested in a [^35S]GTPgS binding assay using striatal membranes. […] The immunocomplexes so formed were collected by incubation at 25° C. for 30 minutes with 40 ml of agarose-conjugated protein A/G beads and centrifugation at 5,000×g at 4° C. for 5 minutes. […] The radioactivity in the suspension was determined by liquid scintillation spectrometry. […]
parameterMeasured: MOR agonist activity ([35S]GTPgS binding to Gao) (%)

# compound, measuredValue
measured = [
    ("CC(=O)c1ccc(S(=O)(=O)N2CCC3(CC2)NC(=O)C(Cc2cnc[nH]2)N3S(=O)(=O)c2ccc(C(C)=O)cc2)cc1 (stereo not drawn) [Compound C0084M]", 133.2),
    ("COc1ccc(C(=O)N2CCOC23CCN(S(=O)(=O)c2ccc(OC)cc2)CC3)cc1 [Compound C0019]", 52.8),
    ("O=S(=O)(c1ccc(Br)cc1C(F)(F)F)N1CCC2(CC1)OCCN2S(=O)(=O)c1ccc(Br)cc1C(F)(F)F [Compound C0068]", 165.9),
    ("CNc1ccc(S(=O)(=O)N2CCC3(CC2)OCCN3S(=O)(=O)c2ccc(NC)cc2)cc1 [Compound C0024]", 59.3),
    ("O=C(c1ccc([N+](=O)[O-])cc1)N1CCC2(CC1)OCCN2S(=O)(=O)c1ccc([N+](=O)[O-])cc1 [Compound C0033]", 76.6),
    ("O=S(=O)(c1ccc(-c2ccccc2)cc1)N1CCC2(CC1)OCCN2S(=O)(=O)c1ccc(-c2ccccc2)cc1 [Compound C0010]", 89.1),
    ("O=S(=O)(c1ccc(C(F)(F)F)cc1Br)N1CCC2(CC1)OCCN2S(=O)(=O)c1ccc(C(F)(F)F)cc1Br [Compound C0071]", 177.1),
    ("COc1cc(S(=O)(=O)N2CCC3(CC2)OCCN3S(=O)(=O)c2cc(OC)c(OC)c(OC)c2)cc(OC)c1OC [Compound C0062]", 59.8),
    ("NS(=O)(=O)c1ccc(S(=O)(=O)N2CCC3(CC2)OCCN3S(=O)(=O)c2ccc(S(N)(=O)=O)cc2)cc1 [Compound C0034]", 80.1),
]

---

Recorded MOR agonist activity (preliminary study) for the following compounds
Target: mu opiate receptor (MOR) (Rattus norvegicus, UniProt P33535)
Construct: from tissue; host or cells: striatum (membrane preparation)
Assay: MOR agonist activity using [35S]GTPgS binding assay in striatal membranes
Assay type: biochemical
Settings: 1 mM + bNFA; average of two runs

# compound, systemTested, MOR agonist activity (preliminary study), %
rows = [
    ("Cc1ccc(S(=O)(=O)N2CCOC23CCN(CC2CCC2)CC3)cc1 [Compound 9]", "mu opiate receptor (MOR) (Rattus norvegicus, UniProt P33535)", 56.6),
    ("C[C@@H](NC(=O)[C@@H](N)Cc1ccc(O)cc1)C(=O)NCC(=O)N(C)[C@@H](Cc1ccccc1)C(=O)NCCO [DAMGO, [D-Ala2, N-MePhe4, Gly-ol]-enkephalin, reference compound]", "mu opiate receptor (MOR) (Rattus norvegicus, UniProt P33535)", 56.8),
    ("C=CCN1CCC2(CC1)OCCN2S(=O)(=O)c1ccc(C)cc1 [Compound 10]", "mu opiate receptor (MOR) (Rattus norvegicus, UniProt P33535)", 60.4),
    ("O=S(=O)(c1ccc(OC(F)(F)F)cc1)N1CCOC12CCN(CC1CC1)CC2 [Compound 4]", "mu opiate receptor (MOR) (Rattus norvegicus, UniProt P33535)", 49.5),
    ("Cc1ccc(S(=O)(=O)N2CCOC23CCN(CC2CC2)CC3)cc1 [Compound C0134M]", "mu opiate receptor (MOR) (Rattus norvegicus, UniProt P33535)", 53.2),
]

---

Molecular target: mu opiate receptor (MOR) (Rattus norvegicus, UniProt P33535)
Construct: from tissue; host or cells: striatum (membrane preparation)
Experiment: MOR agonist activity using [35S]GTPgS binding assay in striatal membranes
Format: biochemical
Details: 1 μM compound as agonist; Series C-2 table
parameterMeasured: MOR agonist activity ([35S]GTPgS binding to Gao) (%)

# compound, measuredValue
records = [
    ("C[C@@H](NC(=O)[C@@H](N)Cc1ccc(O)cc1)C(=O)NCC(=O)N(C)[C@@H](Cc1ccccc1)C(=O)NCCO [DAMGO, [D-Ala2, N-MePhe4, Gly-ol]-enkephalin, reference compound]", 266.1),
    ("CC(=O)N1CCSC12CCN(S(=O)(=O)c1ccc([N+](=O)[O-])cc1)CC2", 127.6),
    ("CC(=O)c1ccc(S(=O)(=O)N2CC(CN(C)C)OC23CCNCC3)cc1 (stereo not drawn) [Compound C0118M]", 261.5),
]

---

Target: mu opiate receptor (MOR) (Rattus norvegicus, UniProt P33535)
Construct: from tissue; host or cells: striatum (membrane preparation)
Test: MOR agonist activity using [35S]GTPgS binding assay in striatal membranes
Assay type: biochemical
Settings: 0.1 μM compound as agonist; Series C-2 table
# MOR agonist activity ([35S]GTPgS binding to Gao) >= 200% gives 1 (yes), anything below gives 0 (no)

# compound, systemTested, answerLabel
records = [
    ("CS(=O)(=O)c1ccc(S(=O)(=O)N2CCOC23CCNCC3)cc1 [Compound C0116M]", "mu opiate receptor (MOR) (Rattus norvegicus, UniProt P33535)", "1 (yes)"),
    ("CC(=O)c1ccc(S(=O)(=O)N2CCC3(CC2)NCCS3)cc1", "mu opiate receptor (MOR) (Rattus norvegicus, UniProt P33535)", "0 (no)"),
    ("CC(=O)c1ccc(S(=O)(=O)N2CCOC23CCNCC3)cc1", "mu opiate receptor (MOR) (Rattus norvegicus, UniProt P33535)", "1 (yes)"),
    ("CC(=O)c1ccc(S(=O)(=O)N2CCOC23CCN(C)CC3)cc1 [Compound C0093M]", "mu opiate receptor (MOR) (Rattus norvegicus, UniProt P33535)", "0 (no)"),
    ("COc1ccc(S(=O)(=O)N2CCOC23CCN(C)CC3)cc1 [Compound C0088M]", "mu opiate receptor (MOR) (Rattus norvegicus, UniProt P33535)", "1 (yes)"),
    ("O=C1CN(Cc2ccccc2)C2(CCN(CC3CC3)CC2)N1 [Compound C0125M]", "mu opiate receptor (MOR) (Rattus norvegicus, UniProt P33535)", "0 (no)"),
    ("COc1ccc(S(=O)(=O)N2CCOC23CCN(C(C)C)CC3)cc1 [Compound C0133M]", "mu opiate receptor (MOR) (Rattus norvegicus, UniProt P33535)", "0 (no)"),
    ("CCc1ccc(S(=O)(=O)N2CCOC23CCN(CC2CC2)CC3)cc1 [Compound C0135M]", "mu opiate receptor (MOR) (Rattus norvegicus, UniProt P33535)", "0 (no)"),
    ("CC(=O)c1ccc(S(=O)(=O)N2CCOC23CCN(CC(=O)O)CC3)cc1 [Compound C0100M]", "mu opiate receptor (MOR) (Rattus norvegicus, UniProt P33535)", "0 (no)"),
]

---

Target: mu opiate receptor (MOR) (Rattus norvegicus, UniProt P33535)
Construct: from tissue; host or cells: striatum (membrane preparation)
Assay: MOR agonist activity using [35S]GTPgS binding assay in striatal membranes
Assay type: biochemical
Conditions: 0.1 μM compound as agonist; Series C-1 table
Method: To assess the mu opiate receptor (MOR) agonist activity of positive compounds from the FLNA screening, compounds were tested in a [^35S]GTPgS binding assay using striatal membranes. […] The immunocomplexes so formed were collected by incubation at 25° C. for 30 minutes with 40 ml of agarose-conjugated protein A/G beads and centrifugation at 5,000×g at 4° C. for 5 minutes. […] The radioactivity in the suspension was determined by liquid scintillation spectrometry. […]
parameterMeasured: MOR agonist activity ([35S]GTPgS binding to Gao) (%)

# compound, systemTested, measuredValue
records = [
    ("CC(=O)c1ccc(S(=O)(=O)N2CCC3(CC2)OC(CN(C)C)CN3S(=O)(=O)c2ccc(C(C)=O)cc2)cc1 (stereo not shown) [Compound C0065]", "mu opiate receptor (MOR) (Rattus norvegicus, UniProt P33535)", 198.3),
    ("O=S(=O)(c1ccc2ccccc2c1)N1CCC2(CC1)OCCN2S(=O)(=O)c1ccc2ccccc2c1 [Compound C0140M]", "mu opiate receptor (MOR) (Rattus norvegicus, UniProt P33535)", 126.1),
    ("O=S(=O)(c1ccccc1)N1CCC2(CC1)OCCN2S(=O)(=O)c1ccccc1 [Compound C0016]", "mu opiate receptor (MOR) (Rattus norvegicus, UniProt P33535)", 172.7),
    ("CC(C)c1ccc(S(=O)(=O)N2CCC3(CC2)OCCN3S(=O)(=O)c2ccc(C(C)C)cc2)cc1 [Compound C0007]", "mu opiate receptor (MOR) (Rattus norvegicus, UniProt P33535)", 79.1),
]
